assay: Anticancer human tumor 997537-175-T-J1-PDC patient-derived colon adenocarcinoma cell line growth inhibition [POLQ]; settings: 997537-175-T-J1-PDC complex spheroid viability, combination with POLQ inhibitors; second compound 0.1 µM; first compound 0.1 µM; stronger effect = lower value
# viability, T/C values compiled below
TEST_READOUT: viability, T/C (%)

INSERT INTO assay_data (molecule, reading_unit, result_value) VALUES
  ('C=CC(=O)N1CCN(c2nc(=O)n(-c3c(C)ccnc3C(C)C)c3nc(-c4c(O)cccc4F)c(F)cc23)C(C)C1 (stereo not given) + Nc1ccc(C#CCN(C(=O)Cc2ncc(C(F)(F)F)cc2C(F)(F)F)c2ccc(F)cc2)nn1', '%', 91.1),
  ('Cn1ncnc1[C@H]1c2n[nH]c(=O)c3cc(F)cc(c23)N[C@@H]1c1ccc(F)cc1 + COC1C(OC(N)=O)C(O)C(Oc2ccc3c(O)c(NC(=O)c4ccc(O)c(CC=C(C)C)c4)c(=O)oc3c2C)OC1(C)C', '%', 91.5),
  ('COc1cc2cc(C(=O)CCC(=O)O)sc2cc1OC + COC1C(OC(N)=O)C(O)C(Oc2ccc3c(O)c(NC(=O)c4ccc(O)c(CC=C(C)C)c4)c(=O)oc3c2C)OC1(C)C', '%', 96.3),
  ('CCc1cc2c(N3CCc4c(cc(Cn5ccnc5)cc4-c4cn(C)nc4C(F)(F)F)C3=O)ccnc2c(OC)n1 + COC1C(OC(N)=O)C(O)C(Oc2ccc3c(O)c(NC(=O)c4ccc(O)c(CC=C(C)C)c4)c(=O)oc3c2C)OC1(C)C', '%', 106),
  ('C#Cc1c(F)ccc2cc(O)cc(-c3ncc4c(N5CC6CCC(C5)N6)nc(OCC56CCCN5CC(F)C6)nc4c3F)c12 (stereo not given) + COC1C(OC(N)=O)C(O)C(Oc2ccc3c(O)c(NC(=O)c4ccc(O)c(CC=C(C)C)c4)c(=O)oc3c2C)OC1(C)C', '%', 104);

* * *

experiment: Anticancer human tumor 997537-175-T-J1-PDC cell line growth inhibition [POLQ]; conditions: 997537-175-T-J1-PDC complex spheroid viability, combination with POLQ inhibitors; second compound 1 µM; first compound 10 µM; stronger effect = lower value;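 further: luminescence signal used as a surrogate for viable cells; spheroids exposed to drugs for seven days before readout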
Below is a list of entries, each paired with its recorded viability, T/C value.
TEST_READOUT: viability, T/C (%)

INSERT INTO measurements (compound, test_readout, reading_unit, result_value) VALUES
  ('CC(C)n1c(=O)n(C)c2cnc3cc(F)c(-c4ccc(OCCCN5CCCCC5)nc4)cc3c21 + COC1C(OC(N)=O)C(O)C(Oc2ccc3c(O)c(NC(=O)c4ccc(O)c(CC=C(C)C)c4)c(=O)oc3c2C)OC1(C)C', 'viability, T/C', '%', 88),
  ('COc1ccc([C@@H](O)c2cc(-c3ncnc4cc(N5CCOCC5)ccc34)c(F)cc2Cl)nn1 + Cc1cccc(N(C)C(=O)C2C(O)CCN2c2nc(C)cc(C(F)(F)F)c2C#N)c1', 'viability, T/C', '%', 69.7),
  ('CC1COCCN1c1cc(C2(O)CC3CCC(C2)O3)c2cnn(-c3ccn[nH]3)c2n1 (centres undefined) + Nc1ccc(C#CCN(C(=O)Cc2ncc(C(F)(F)F)cc2C(F)(F)F)c2ccc(F)cc2)nn1', 'viability, T/C', '%', 44.7),
  ('COc1cc(C2c3cc4c(cc3C(OC3OC5COC(C)OC5C(O)C3O)C3COC(=O)C23)OCO4)cc(OC)c1O (centres undefined) + COC1C(OC(N)=O)C(O)C(Oc2ccc3c(O)c(NC(=O)c4ccc(O)c(CC=C(C)C)c4)c(=O)oc3c2C)OC1(C)C', 'viability, T/C', '%', 55.5);
